Assayed System: T1, monovalent hVISTA-ECD (human VISTA extracellular domain with His tail) (human, UniProt Q9H7M9 33-193)
T1 construct: analyte flowed over captured antibody; also called huVISTA-His
T1 sequence (Q9H7M9 other isoform, or with tags, fused parts or gaps limits assumed): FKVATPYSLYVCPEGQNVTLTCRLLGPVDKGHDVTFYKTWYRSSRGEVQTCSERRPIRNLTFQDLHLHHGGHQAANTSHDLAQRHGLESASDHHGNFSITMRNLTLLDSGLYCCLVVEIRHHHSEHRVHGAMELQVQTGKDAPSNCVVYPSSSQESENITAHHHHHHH
Protocol Description: SPR, pH 7.4
The reader will find reported kd improvement vs parent values listed item by item below.
# output: bare number, implied unit fold

Binder	Uom	kd improvement vs parent
P1-061528 (41F11 NGS mut VK_A64G/R91A) (antibody, V domains shown, also called P1-061528-2) VH: QVQLVESGGGLVKPGGSLRLSCAASGFTFSDYYMSWIRQAPGKGLEWVSYISNSGSPIYYADSVKGRFTISRDNAKNSLYLQMNSLRAEDTAVYYCARDLPGWYFDLWGRGTLVTVSS VL: EIVLTQSPATLSLSPGERATLSCRASQSVSSYLAWYQQKPGQAPRLLIYDASNRATGIPARFSGSGSGTDFTLTISSLEPEDFAVYYCQQANNWPRTFGQGTKVEIK	fold	5.1
P1-064510 (41F11_Vk_A25E/V29D/A64G/R91T) (antibody, V domains shown, also called P1-064510-1) VH: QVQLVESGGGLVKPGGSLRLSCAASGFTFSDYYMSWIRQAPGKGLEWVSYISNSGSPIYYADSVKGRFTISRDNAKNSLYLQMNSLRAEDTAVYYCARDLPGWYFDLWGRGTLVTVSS VL: EIVLTQSPATLSLSPGERATLSCRESQSDSSYLAWYQQKPGQAPRLLIYDASNRATGIPARFSGSGSGTDFTLTISSLEPEDFAVYYCQQTNNWPRTFGQGTKVEIK	fold	1.4
P1-065326 (41F11_VH_D31E/Y50W/S55E/L96E/Y100E VK_A64G) (antibody, V domains shown, Kabat positions; also called P1-065326-1) VH: QVQLVESGGGLVKPGGSLRLSCAASGFTFSEYYMSWIRQAPGKGLEWVSWISNSGEPIYYADSVKGRFTISRDNAKNSLYLQMNSLRAEDTAVYYCARDEPGWEFDLWGRGTLVTVSS VL: EIVLTQSPATLSLSPGERATLSCRASQSVSSYLAWYQQKPGQAPRLLIYDASNRATGIPARFSGSGSGTDFTLTISSLEPEDFAVYYCQQRNNWPRTFGQGTKVEIK	fold	2.7
P1-063125 (41F11_HC_Mutant: T28P/Y50W/S55E/Y100E) (antibody, V domains shown, Kabat positions; also called P1-063125-5) VH: QVQLVESGGGLVKPGGSLRLSCAASGFPFSDYYMSWIRQAPGKGLEWVSWISNSGEPIYYADSVKGRFTISRDNAKNSLYLQMNSLRAEDTAVYYCARDLPGWEFDLWGRGTLVTVSS VL: EIVLTQSPATLSLSPGERATLSCRASQSVSSYLAWYQQKPGQAPRLLIYDASNRATGIPARFSASGSGTDFTLTISSLEPEDFAVYYCQQRNNWPRTFGQGTKVEIK	fold	4.3
P1-064392 (41F11_HC_Mutant: D31E/Y50W/S55E/Y100E 41F11_LC_Mutant: V29D/A64G/Q89E/R91T) (antibody, V domains shown, Kabat positions; also called P1-064392-1) VH: QVQLVESGGGLVKPGGSLRLSCAASGFTFSEYYMSWIRQAPGKGLEWVSWISNSGEPIYYADSVKGRFTISRDNAKNSLYLQMNSLRAEDTAVYYCARDLPGWEFDLWGRGTLVTVSS VL: EIVLTQSPATLSLSPGERATLSCRASQSDSSYLAWYQQKPGQAPRLLIYDASNRATGIPARFSGSGSGTDFTLTISSLEPEDFAVYYCEQTNNWPRTFGQGTKVEIK	fold	0.1

# ---- query binder ----
Asked: Fill in: kd improvement vs parent of P1-063001 (41F11_LC_Mutant: V29D/A64G/R91T) (antibody, V domains shown, also called P1-063001-5; P1-063001-6) VH: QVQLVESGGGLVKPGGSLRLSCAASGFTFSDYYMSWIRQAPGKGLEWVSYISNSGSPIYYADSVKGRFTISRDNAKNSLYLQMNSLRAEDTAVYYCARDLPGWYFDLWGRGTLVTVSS VL: EIVLTQSPATLSLSPGERATLSCRASQSDSSYLAWYQQKPGQAPRLLIYDASNRATGIPARFSGSGSGTDFTLTISSLEPEDFAVYYCQQTNNWPRTFGQGTKVEIK is ___
Given back: 6.8

This collection of values is drawn from patent US20220073617A1.
